test system: COLO 205; test: NCI tumour cell line growth inhibition, 48 h
Active and inactive are the calls of the source. Rule as the data show it: active = GI50 up to about 1.1 µM and inactive = higher.
GI50 values for the compounds below.

{"LINE NOTATION": "COc1ccc(-c2cc(Cc3cccs3)c(=O)[nH]n2)cc1", "GI50": "> 100 µM (inactive)"}
{"LINE NOTATION": "O=[N+]([O-])c1cccc2nc3ccccc3c(NCCCN3CCCCC3)c12", "GI50": "< 0.0107 µM (active)"}
{"LINE NOTATION": "CN1CCC2(CC1)C(=O)N(N1CCCCCC1)C(=O)N2c1ccccc1", "GI50": "> 100 µM (inactive)"}
{"LINE NOTATION": "CS(=O)(=O)Nc1ccc(Nc2ccnc3ccc4[nH]ccc4c23)cc1", "GI50": "9.1 µM (inactive)"}
{"LINE NOTATION": "c1ccc2c(Nc3ncco3)cccc2c1", "GI50": "> 10 µM (inactive)"}
